Origin of the recorded values: patent US12258327B2

Experimental System: EGFR del19/T790M/C797S (Homo sapiens, UniProt P00533, C797S/DEL746-750/T790M)
Sequence (P00533 with tags, fused parts or gaps DEL746-750/T790M/C797S): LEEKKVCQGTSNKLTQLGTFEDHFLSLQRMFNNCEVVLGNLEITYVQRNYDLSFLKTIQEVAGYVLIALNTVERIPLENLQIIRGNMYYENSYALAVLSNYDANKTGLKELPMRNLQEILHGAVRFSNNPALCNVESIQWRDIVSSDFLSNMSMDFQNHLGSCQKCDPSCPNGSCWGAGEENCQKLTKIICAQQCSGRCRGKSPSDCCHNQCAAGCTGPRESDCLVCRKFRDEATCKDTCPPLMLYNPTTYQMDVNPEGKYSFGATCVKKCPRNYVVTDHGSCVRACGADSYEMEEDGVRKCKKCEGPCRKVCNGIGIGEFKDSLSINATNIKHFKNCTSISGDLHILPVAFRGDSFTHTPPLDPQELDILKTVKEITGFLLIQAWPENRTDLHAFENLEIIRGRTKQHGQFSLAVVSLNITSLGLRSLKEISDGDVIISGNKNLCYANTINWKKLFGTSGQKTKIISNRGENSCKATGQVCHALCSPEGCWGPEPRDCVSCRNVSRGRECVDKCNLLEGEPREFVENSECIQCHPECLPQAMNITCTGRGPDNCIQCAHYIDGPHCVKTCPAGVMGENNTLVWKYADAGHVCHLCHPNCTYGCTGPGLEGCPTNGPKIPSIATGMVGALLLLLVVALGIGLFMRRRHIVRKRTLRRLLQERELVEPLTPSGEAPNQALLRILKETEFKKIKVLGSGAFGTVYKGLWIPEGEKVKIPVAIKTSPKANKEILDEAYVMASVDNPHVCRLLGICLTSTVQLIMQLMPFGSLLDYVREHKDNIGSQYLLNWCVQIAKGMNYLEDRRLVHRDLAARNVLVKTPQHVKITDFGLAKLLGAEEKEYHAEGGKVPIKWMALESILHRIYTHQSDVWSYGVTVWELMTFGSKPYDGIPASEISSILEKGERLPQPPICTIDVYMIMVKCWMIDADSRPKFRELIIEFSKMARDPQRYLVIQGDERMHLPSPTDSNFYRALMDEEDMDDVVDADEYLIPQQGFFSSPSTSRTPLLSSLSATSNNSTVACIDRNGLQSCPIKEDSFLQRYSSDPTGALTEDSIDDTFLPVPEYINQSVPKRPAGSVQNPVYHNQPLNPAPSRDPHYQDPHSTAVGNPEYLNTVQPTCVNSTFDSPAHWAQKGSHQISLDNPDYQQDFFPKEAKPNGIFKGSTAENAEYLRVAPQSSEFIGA
Method Description: Biochemical EGFR kinase assay (Lance Ultra TR-FRET), triple mutant del19/T790M/C797S
Test Parameters: IC50 del19/T790M/C797S (nM) 100 μM ATP, 100 μM ATP
Measured Parameter: IC50 (nM)

Recorded results for 3 compounds are shown here.
Compound | IC50 (nM)
Cn1nc(-c2cnc(Nc3ccnc(-c4cnn(S(=O)(=O)C5CC5)c4)n3)cc2N[C@H]2CC[C@@](C)(O)CC2)cc1C(C)(C)O [Example 293] | 0.6
O=S(=O)(C1CC1)n1cc(-c2nccc(Nc3cc(OC4CCC(O)C4)c(-c4cnn(C(F)F)c4)cn3)n2)cn1 (stereo not drawn) [Example 72] | 0.8
CC1CC(Nc2cc(Nc3ccnc(-c4cnn(S(=O)(=O)C5CC5)c4)n3)ncc2-c2ccn(C(F)F)n2)CCC1O (stereo not drawn) [Example 105] | 6.2

A: O=S(=O)(C1CC1)n1cc(-c2nccc(Nc3cc(N[C@H]4CC[C@H](CO)CC4)c(-c4ccn(C(F)F)n4)cn3)n2)cn1 [Example 198]
B: O=S(=O)(C1CC1)n1cc(-c2nccc(Nc3cc(N[C@H]4CC[C@@H](NCC(F)F)CC4)c(-c4csc(C(F)(F)F)n4)cn3)n2)cn1 [Example 53]
Which record would sort first by descending IC50, A or B ? Lab note: record the label of whichever item you select.
B
(B: 9.4 nM, A: 0.3 nM)

A: CN(C)CCNC1CCC(Nc2cc(Nc3ccnc(-c4cnn(S(=O)(=O)C5CC5)c4)n3)ncc2-c2csc(C(F)(F)F)n2)CC1 (stereo not drawn) [Example 98]
B: CN[C@H]1CC[C@H](CNc2cc(Nc3ccnc(-c4cnn(S(=O)(=O)C5CC5)c4)n3)ncc2-c2ccn(C(F)F)n2)CC1 [Example 193]
Which one would you say has the larger IC50 value: A , or B ? Response format: the label of the selected entry.
A
(A: 0.7 nM, B: 0.2 nM)

a: Cn1ccc(-c2cnc(Nc3ccnc(-c4cnn(S(=O)(=O)C5CC5)c4)n3)cc2NC[C@H]2CC[C@H](NCC(F)F)CC2)n1 [Example 129]
b: O=S(=O)(C1CC1)n1cc(-c2nccc(Nc3cc(N[C@H]4CC[C@@H](NCCF)CC4)c(-c4ccn(CC(F)F)n4)cn3)n2)cn1 [Example 242]
Which of the two items, a and b , has the greater recorded IC50? Bench note: the answer is the label of the chosen record.
a
(a: 0.7 nM, b: 0.2 nM)

----------
Experimental System: EGFR L858R/C797S (Homo sapiens, UniProt P00533, C797S/L858R)
Sequence (P00533 25-1210 C797S/L858R): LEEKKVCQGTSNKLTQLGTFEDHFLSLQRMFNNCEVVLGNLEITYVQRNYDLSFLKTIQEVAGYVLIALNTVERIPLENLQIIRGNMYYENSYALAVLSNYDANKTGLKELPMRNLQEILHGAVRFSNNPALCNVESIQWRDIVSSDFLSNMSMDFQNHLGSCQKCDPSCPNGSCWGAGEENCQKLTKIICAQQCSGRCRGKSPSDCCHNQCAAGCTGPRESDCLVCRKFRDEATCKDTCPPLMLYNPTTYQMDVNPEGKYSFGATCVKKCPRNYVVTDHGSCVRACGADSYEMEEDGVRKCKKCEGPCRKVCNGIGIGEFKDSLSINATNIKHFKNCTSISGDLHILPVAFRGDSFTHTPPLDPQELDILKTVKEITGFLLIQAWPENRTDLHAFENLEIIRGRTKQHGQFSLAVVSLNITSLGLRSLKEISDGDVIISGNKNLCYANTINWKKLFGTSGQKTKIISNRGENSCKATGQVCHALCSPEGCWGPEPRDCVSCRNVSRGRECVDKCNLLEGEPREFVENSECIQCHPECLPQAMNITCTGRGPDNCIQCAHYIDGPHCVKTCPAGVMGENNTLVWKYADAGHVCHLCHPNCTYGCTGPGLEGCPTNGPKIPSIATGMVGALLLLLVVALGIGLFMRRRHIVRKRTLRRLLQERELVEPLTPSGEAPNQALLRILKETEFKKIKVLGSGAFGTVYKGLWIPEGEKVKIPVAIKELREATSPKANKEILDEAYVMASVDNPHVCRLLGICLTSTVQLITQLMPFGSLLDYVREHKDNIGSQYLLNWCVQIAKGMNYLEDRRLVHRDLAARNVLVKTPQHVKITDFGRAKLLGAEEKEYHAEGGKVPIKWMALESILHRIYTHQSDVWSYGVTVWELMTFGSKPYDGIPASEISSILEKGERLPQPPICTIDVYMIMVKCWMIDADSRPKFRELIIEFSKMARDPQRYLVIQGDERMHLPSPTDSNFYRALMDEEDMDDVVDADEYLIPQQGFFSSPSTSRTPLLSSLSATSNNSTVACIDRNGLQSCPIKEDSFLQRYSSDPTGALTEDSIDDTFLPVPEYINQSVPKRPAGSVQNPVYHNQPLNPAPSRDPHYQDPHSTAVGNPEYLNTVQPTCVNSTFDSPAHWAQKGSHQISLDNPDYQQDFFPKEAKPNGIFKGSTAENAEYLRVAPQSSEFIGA
Method Description: Biochemical EGFR kinase assay (Lance Ultra TR-FRET), double mutant L858R/C797S
Test Parameters: Km ATP; read-out: IC50 L858R/C797S (nM) Km ATP
Measured Parameter: IC50 (nM)

Solved cases (2 shown):
Compound | IC50 (nM)
C[C@]1(O)CC[C@@H](Nc2cc(Nc3ccnc(-c4cnn(S(=O)(=O)C5CC5)c4)n3)ncc2-c2ccn(C(F)(F)F)n2)CC1 [Example 285] | 0.6
CCOC(=O)c1ccn(-c2cnc(Nc3ccnc(-c4cnn(S(=O)(=O)C5CC5)c4)n3)cc2N[C@H]2CC[C@@](C)(O)CC2)n1 [Example 102] | 4.4

1: CN(C)CCCn1ccc(-c2cnc(Nc3ccnc(-c4cnn(S(=O)(=O)C5CC5)c4)n3)cc2N[C@H]2CC[C@@H](CO)CC2)n1 [Example 296]
2: CS(=O)(=O)c1ccccc1Nc1nccc(Nc2cc(N[C@H]3CC[C@@](C)(O)CC3)c(-c3ccn(C(F)F)n3)cn2)n1 [Example 313]
Returns: the argument ( 1 or 2 ) having the larger IC50. // caller expects the label of the chosen entry
2
(2: 146 nM, 1: 0.1 nM)
